# assay_comment: protein stability index of a GFP-peptide fusion (yeast GPS) (PSI 1-4); higher = more stable; sorted into four equal gates, so the index is relative within each strain
# condition_label: pdr5∆
Decide by protein stability index: equal to or exceeding 3 means condition met, less means condition not met.

{"residue_codes": "SNKKETKKKRKPTEVND [ITC1]", "assigned_category": "condition met"}
{"residue_codes": "YKALRGMVSHKTARGKA [RPL16A]", "assigned_category": "condition not met"}
{"residue_codes": "HYERTQTKENKRCVGVI [RPN8]", "assigned_category": "condition not met"}
{"residue_codes": "TTGSIFEKDLMAYFDEN [BRN1]", "assigned_category": "condition met"}
{"residue_codes": "SKLKKETASFIPTKESL [YIL149C/MLP2]", "assigned_category": "condition met"}
{"residue_codes": "PRDLLRVIIQELRFPSP [PRP28]", "assigned_category": "condition not met"}
{"residue_codes": "DDKVSVVEKEKIESLAG [UBP6]", "assigned_category": "condition not met"}
{"residue_codes": "FEQFEKFYEEKLWFQLS [RPN9]", "assigned_category": "condition not met"}
{"residue_codes": "FHFRAPSRIFYKALRGM [RPL16A]", "assigned_category": "condition not met"}
{"residue_codes": "TLLWNKNDKLIKIEDFV [SNF5]", "assigned_category": "condition not met"}
{"residue_codes": "LHCCIQLLMGDIPELSF [RPN3]", "assigned_category": "condition not met"}
{"residue_codes": "RGSLDSEHVFDYFFYFL [NUT1]", "assigned_category": "condition not met"}
{"residue_codes": "TEVERAKSLLKLQLGQL [COR1]", "assigned_category": "condition not met"}
{"residue_codes": "TQMDGFDQSTNVKVIMA [RPT3]", "assigned_category": "condition not met"}
{"residue_codes": "FDFLDDGTAQLSNNKTD [YJR042W/NUP85]", "assigned_category": "condition met"}
{"residue_codes": "ATYMDNDIAGQPQALQK [RPO21]", "assigned_category": "condition not met"}
{"residue_codes": "HTTQIVNLEDNTQDLLL [YML103C/NUP188]", "assigned_category": "condition met"}
{"residue_codes": "MVLYKRKPILLPDPKPL [ITC1]", "assigned_category": "condition not met"}
{"residue_codes": "DEDDDLDEDDVNADDDD [RPB4]", "assigned_category": "condition met"}
{"residue_codes": "QRQERLRQQQQQQDQPE [RPN10]", "assigned_category": "condition not met"}
{"residue_codes": "AKKLIQSLPPTLKVNRL [RPL38]", "assigned_category": "condition not met"}
{"residue_codes": "ITLIDSASLHLNYGVYL [RET1]", "assigned_category": "condition not met"}
{"residue_codes": "DTRFGGRMDMTRLYDYE [SSN2]", "assigned_category": "condition met"}
{"residue_codes": "EKPLILADYIVEVLLVN [NUT1]", "assigned_category": "condition not met"}

----------
Recorded protein stability index, one value per entry.
# assay_comment: protein stability index of a GFP-peptide fusion (yeast GPS) (PSI 1-4); higher = more stable; sorted into four equal gates, so the index is relative within each strain
# condition_label: ubr1∆

{"residue_codes": "DLKNTRMKSITSTSQKI [SNF5]", "protein stability index": 3.08}
{"residue_codes": "QEPFLNSSNYAELFNND [PRP8]", "protein stability index": 2.82}
{"residue_codes": "VSKMEKAEKTLKSTKHS [SMC4]", "protein stability index": 2.83}
{"residue_codes": "LSDYNIQKESTLHLVLR [RPS31]", "protein stability index": 2.58}
{"residue_codes": "MEADPSLHPLFEQFEKF [RPN9]", "protein stability index": 2.55}
{"residue_codes": "GFGRKGKAKGDIPGVRF [RPS23A]", "protein stability index": 3.22}
{"residue_codes": "PIMFQDFDDSTAQEINF [IRR1]", "protein stability index": 2.88}
{"residue_codes": "TLVAQNLKQANNVAYGK [SMC4]", "protein stability index": 3}
{"residue_codes": "TQYKAGKASLFAQGKRR [RPL42A]", "protein stability index": 3.14}
{"residue_codes": "SGRTVISPDPNLSIDEV [RPO31]", "protein stability index": 1.92}
{"residue_codes": "NSNQQQNPKLFQTIFSK [SIN4]", "protein stability index": 2.42}
{"residue_codes": "STSGDPSEFHCLQDALD [SSN2]", "protein stability index": 3.43}
{"residue_codes": "TLDDLVTKWTNQLTESA [YJL041W/NSP1]", "protein stability index": 3.05}
{"residue_codes": "PSQTLFSISYKPPTQKT [SRP21]", "protein stability index": 2.1}
{"residue_codes": "STVSANHSNNDIPTIAD [BRN1]", "protein stability index": 3.24}
